Collected viability, T/C values appear next to each entry.
Tested on: SW1271 complex spheroids with HUVEC/MSC, growth, % test/control
Method: Anticancer human tumor SW1271 cell line growth inhibition [AhR];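 note: spheroids exposed to agents for 7 days before readout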
Experimental setup: second compound 3.16 µM; first compound 1 µM; stronger effect = lower value
Excerpt: Multicellular complex tumor spheroid response to aryl hydrocarbon receptor antagonists in combination with a variety of drugs and investigational agents in selected tumor cell lines […] Compounds. […] If the clinical Cmax for an agent had not been determined, the highest concentration tested was 10 microM (Table 1). […]

{"Compound": "COc1cc(C2c3cc4c(cc3C(OC3OC5COC(C)OC5C(O)C3O)C3COC(=O)C23)OCO4)cc(OC)c1O (stereo not given) + Cc1ccccc1N=Nc1ccc(NC(=O)c2ccnn2C)c(C)c1", "Measurement unit": "%", "viability, T/C": 49.4}
{"Compound": "CC1(C)CCC(CN2CCN(c3ccc(C(=O)NS(=O)(=O)c4ccc(NCC5CCOCC5)c([N+](=O)[O-])c4)c(Oc4cnc5[nH]ccc5c4)c3)CC2)=C(c2ccc(Cl)cc2)C1 + Cc1ccccc1N=Nc1ccc(NC(=O)c2ccnn2C)c(C)c1", "Measurement unit": "%", "viability, T/C": 76.1}
{"Compound": "COc1cc(C2c3cc4c(cc3C(OC3OC5COC(C)OC5C(O)C3O)C3COC(=O)C23)OCO4)cc(OC)c1O (stereo not given) + Cc1cncc(-c2nc(NCCc3c[nH]c4ccccc34)c3ncn(C(C)C)c3n2)c1", "Measurement unit": "%", "viability, T/C": 76.2}
{"Compound": "CC1(C)CCC(CN2CCN(c3ccc(C(=O)NS(=O)(=O)c4ccc(NCC5CCOCC5)c([N+](=O)[O-])c4)c(Oc4cnc5[nH]ccc5c4)c3)CC2)=C(c2ccc(Cl)cc2)C1 + CC(CO)NC(=O)c1cc(-c2ccc(Cl)cc2)nn(-c2cnn(C)c2)c1=O", "Measurement unit": "%", "viability, T/C": 82.5}
{"Compound": "COc1cccc2c1C(=O)c1c(O)c3c(c(O)c1C2=O)CC(O)(C(=O)CO)CC3OC1CC(N)C(O)C(C)O1 (stereo not given) + Cc1cncc(-c2nc(NCCc3c[nH]c4ccccc34)c3ncn(C(C)C)c3n2)c1", "Measurement unit": "%", "viability, T/C": 1.86}

---

Test system: SW1271 complex spheroids with HUVEC/MSC, growth, % test/control
Method: Anticancer human tumor SW1271 cell line growth inhibition [AhR];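 note: spheroids exposed to agents for 7 days before readout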
Experimental setup: second compound 3.16 µM; first compound 10 µM; stronger effect = lower value
Collected viability, T/C values appear next to each entry.
Measured quantity: viability, T/C

{"Compound": "COc1cc(C2c3cc4c(cc3C(OC3OC5COC(C)OC5C(O)C3O)C3COC(=O)C23)OCO4)cc(OC)c1O (configuration not stated) + Cc1cncc(-c2nc(NCCc3c[nH]c4ccccc34)c3ncn(C(C)C)c3n2)c1", "Test value": "70.6%"}
{"Compound": "CC1(C)CCC(CN2CCN(c3ccc(C(=O)NS(=O)(=O)c4ccc(NCC5CCOCC5)c([N+](=O)[O-])c4)c(Oc4cnc5[nH]ccc5c4)c3)CC2)=C(c2ccc(Cl)cc2)C1 + Cc1cncc(-c2nc(NCCc3c[nH]c4ccccc34)c3ncn(C(C)C)c3n2)c1", "Test value": "110%"}

---

Tested on: SW1271 complex spheroids with HUVEC/MSC, growth, % test/control
Method: Anticancer human tumor SW1271 cell line growth inhibition [AhR];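 note: spheroids exposed to agents for 7 days before readout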
Experimental setup: second compound 1 µM; first compound 0.0316 µM; stronger effect = lower value
Measured quantity: viability, T/C (%)

{"Molecule": "CC[C@@]1(O)C(=O)OCc2c1cc1n(c2=O)Cc2cc3c(CN(C)C)c(O)ccc3nc2-1 + Cc1ccccc1N=Nc1ccc(NC(=O)c2ccnn2C)c(C)c1", "Test value": 63.8}
{"Molecule": "O=C(c1cc(Cc2n[nH]c(=O)c3ccccc23)ccc1F)N1CCN(C(=O)C2CC2)CC1 + Cc1cncc(-c2nc(NCCc3c[nH]c4ccccc34)c3ncn(C(C)C)c3n2)c1", "Test value": 84.9}
{"Molecule": "CC1COCCN1c1cc(C2(S(C)(=N)=O)CC2)nc(-c2ccnc3[nH]ccc23)n1 (stereo not drawn) + Cc1ccccc1N=Nc1ccc(NC(=O)c2ccnn2C)c(C)c1", "Test value": 96.8}

---

System: SW1271 complex spheroids with HUVEC/MSC, growth, % test/control
Method: Anticancer human tumor SW1271 cell line growth inhibition [AhR];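 note: spheroids exposed to agents for 7 days before readout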
Experimental setup: second compound 0.316 µM; first compound 0.00316 µM; stronger effect = lower value
Sorting guide: entries reporting viability, T/C beneath 90% go in the T pile, the rest go in the F pile.

{"Compound": "Nc1ncn(C2CC(O)C(CO)O2)c(=O)n1 (stereo unspecified) + Cc1ccccc1N=Nc1ccc(NC(=O)c2ccnn2C)c(C)c1", "Category": "T"}
{"Compound": "CC1COCCN1c1cc(-c2ccnn2C)c2ccnc(-c3ccn[nH]3)c2n1 (stereo unspecified) + Cc1ccccc1N=Nc1ccc(NC(=O)c2ccnn2C)c(C)c1", "Category": "F"}
{"Compound": "CC1COCCN1c1cc(-c2ccnn2C)c2ccnc(-c3ccn[nH]3)c2n1 (stereo unspecified) + Cc1cncc(-c2nc(NCCc3c[nH]c4ccccc34)c3ncn(C(C)C)c3n2)c1", "Category": "T"}

---

System: SW1271 complex spheroids with HUVEC/MSC, growth, % test/control
Method: Anticancer human tumor SW1271 cell line growth inhibition [AhR];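 note: spheroids exposed to agents for 7 days before readout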
Experimental setup: curve of first compound; second compound 10 µM
pIC50: −log10 of the molar value.

{"Compound": "COc1ccc([C@@H](O)c2cc(-c3ncnc4cc(N5CCOCC5)ccc34)c(F)cc2Cl)nn1 + Cc1cncc(-c2nc(NCCc3c[nH]c4ccccc34)c3ncn(C(C)C)c3n2)c1", "Censor symbol": ">", "pIC50": 7.50}
{"Compound": "O=C(C=Cc1cccc(S(=O)(=O)Nc2ccccc2)c1)NO + Cc1cncc(-c2nc(NCCc3c[nH]c4ccccc34)c3ncn(C(C)C)c3n2)c1", "Censor symbol": "=", "pIC50": 6.68}
{"Compound": "CC1COCCN1c1cc(C2(S(C)(=N)=O)CC2)nc(-c2ccnc3[nH]ccc23)n1 (configuration not stated) + Cc1ccccc1N=Nc1ccc(NC(=O)c2ccnn2C)c(C)c1", "Censor symbol": "<", "pIC50": 5.00}
{"Compound": "Nc1ncn(C2CC(O)C(CO)S2)c(=O)n1 (configuration not stated) + CC(CO)NC(=O)c1cc(-c2ccc(Cl)cc2)nn(-c2cnn(C)c2)c1=O", "Censor symbol": "<", "pIC50": 6.52}
{"Compound": "CC1(C)CCC(CN2CCN(c3ccc(C(=O)NS(=O)(=O)c4ccc(NCC5CCOCC5)c([N+](=O)[O-])c4)c(Oc4cnc5[nH]ccc5c4)c3)CC2)=C(c2ccc(Cl)cc2)C1 + CC(CO)NC(=O)c1cc(-c2ccc(Cl)cc2)nn(-c2cnn(C)c2)c1=O", "Censor symbol": "<", "pIC50": 5.00}
{"Compound": "COc1cccc2c1C(=O)c1c(O)c3c(c(O)c1C2=O)CC(O)(C(=O)CO)CC3OC1CC(N)C(O)C(C)O1 (configuration not stated) + Cc1ccccc1N=Nc1ccc(NC(=O)c2ccnn2C)c(C)c1", "Censor symbol": "=", "pIC50": 6.89}
{"Compound": "COc1cc(Nc2ncc3c(n2)-c2ccc(Cl)cc2C(c2c(F)cccc2OC)=NC3)ccc1C(=O)O + Cc1cncc(-c2nc(NCCc3c[nH]c4ccccc34)c3ncn(C(C)C)c3n2)c1", "Censor symbol": ">", "pIC50": 7.50}
{"Compound": "Nc1ccn(C2OC(CO)C(O)C2(F)F)c(=O)n1 (configuration not stated) + CC(CO)NC(=O)c1cc(-c2ccc(Cl)cc2)nn(-c2cnn(C)c2)c1=O", "Censor symbol": "=", "pIC50": 5.28}
{"Compound": "CC(C)CC(NC(=O)C(Cc1ccccc1)NC(=O)c1cnccn1)B(O)O (configuration not stated) + Cc1cncc(-c2nc(NCCc3c[nH]c4ccccc34)c3ncn(C(C)C)c3n2)c1", "Censor symbol": "=", "pIC50": 8.40}
{"Compound": "COc1cc(C2c3cc4c(cc3C(OC3OC5COC(C)OC5C(O)C3O)C3COC(=O)C23)OCO4)cc(OC)c1O (configuration not stated) + Cc1ccccc1N=Nc1ccc(NC(=O)c2ccnn2C)c(C)c1", "Censor symbol": "=", "pIC50": 5.99}
{"Compound": "Nc1ccccc1NC(=O)c1ccc(CNC(=O)OCc2cccnc2)cc1 + Cc1cncc(-c2nc(NCCc3c[nH]c4ccccc34)c3ncn(C(C)C)c3n2)c1", "Censor symbol": ">", "pIC50": 7.50}
{"Compound": "Nc1ccn(C2OC(CO)C(O)C2(F)F)c(=O)n1 (configuration not stated) + Cc1ccccc1N=Nc1ccc(NC(=O)c2ccnn2C)c(C)c1", "Censor symbol": "=", "pIC50": 6.47}

---

Collected viability, T/C values appear next to each entry.
Tested on: SW1271 complex spheroids with HUVEC/MSC, growth, % test/control
Method: Anticancer human tumor SW1271 cell line growth inhibition [AhR];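 note: spheroids exposed to agents for 7 days before readout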
Experimental setup: second compound 10 µM; first compound 3.16 µM; stronger effect = lower value

{"Compound": "COc1cc(Nc2ncc3c(n2)-c2ccc(Cl)cc2C(c2c(F)cccc2OC)=NC3)ccc1C(=O)O + CC(CO)NC(=O)c1cc(-c2ccc(Cl)cc2)nn(-c2cnn(C)c2)c1=O", "Study target": "SW1271 complex spheroids with HUVEC/MSC, growth, % test/control", "Measurement unit": "%", "viability, T/C": 52.2}
{"Compound": "O=C(C=Cc1cccc(S(=O)(=O)Nc2ccccc2)c1)NO + Cc1cncc(-c2nc(NCCc3c[nH]c4ccccc34)c3ncn(C(C)C)c3n2)c1", "Study target": "SW1271 complex spheroids with HUVEC/MSC, growth, % test/control", "Measurement unit": "%", "viability, T/C": 39.2}
{"Compound": "COc1cccc2c1C(=O)c1c(O)c3c(c(O)c1C2=O)CC(O)(C(=O)CO)CC3OC1CC(N)C(O)C(C)O1 (stereo not given) + Cc1cncc(-c2nc(NCCc3c[nH]c4ccccc34)c3ncn(C(C)C)c3n2)c1", "Study target": "SW1271 complex spheroids with HUVEC/MSC, growth, % test/control", "Measurement unit": "%", "viability, T/C": 9.24}
{"Compound": "O=C(c1cc(Cc2n[nH]c(=O)c3ccccc23)ccc1F)N1CCN(C(=O)C2CC2)CC1 + CC(CO)NC(=O)c1cc(-c2ccc(Cl)cc2)nn(-c2cnn(C)c2)c1=O", "Study target": "SW1271 complex spheroids with HUVEC/MSC, growth, % test/control", "Measurement unit": "%", "viability, T/C": 81.2}
{"Compound": "CC1(C)CCC(CN2CCN(c3ccc(C(=O)NS(=O)(=O)c4ccc(NCC5CCOCC5)c([N+](=O)[O-])c4)c(Oc4cnc5[nH]ccc5c4)c3)CC2)=C(c2ccc(Cl)cc2)C1 + CC(CO)NC(=O)c1cc(-c2ccc(Cl)cc2)nn(-c2cnn(C)c2)c1=O", "Study target": "SW1271 complex spheroids with HUVEC/MSC, growth, % test/control", "Measurement unit": "%", "viability, T/C": 78.2}

Origin of the recorded values: PubChem BioAssay AID1919017
